Source: paper doi:10.1101/2025.03.12.642038

# EXPERIMENTAL SYSTEM: T1, IRF4 DBD D117H (Homo sapiens, UniProt Q15306 20-132, D117H)
# T1 sequence: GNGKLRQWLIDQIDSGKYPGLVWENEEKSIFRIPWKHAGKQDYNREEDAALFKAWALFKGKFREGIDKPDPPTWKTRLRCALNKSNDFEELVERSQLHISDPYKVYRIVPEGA
# TEST DETAILS: SPR steady state; FP: PBS + 0.05% Tween20, 5 nM DNA, 1 h, room temperature; SPR: Biacore S200, SA chip, protein 0.1-4500 nM, running buffer not given in material; errors are SD
# CONDITION SUMMARY: protein: recombinant; tags: N-terminal His8-linker-His8-TEV, cleaved; label: 3' biotin; hairpin, TTTT loop
RECORDED ENDPOINT: Kd (nM)
Give just the number in nM; leave the unit off.

**Query** What value of Kd has been recorded for this entry: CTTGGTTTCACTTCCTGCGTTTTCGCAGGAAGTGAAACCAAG (structured_DNA) [IRE hairpin (biotin)]
**Result** 247
